The measured values listed here are drawn from PubChem BioAssay (NCI).

System: HL-60(TB) leukemia
Method notes: NCI-60 one-dose screen, 48 h (100 = growth as untreated, 0 = no growth, -100 = all killed)
Assay setup: 10 µM unless noted
The panel holds about 83,000 compounds, 20% with a hit somewhere; the sample as a whole holds those more often.
Response field label takes Criterion met when growth is strictly below 70% and Criterion not met in all other cases.

## Task In the record for O=C(NCN1C(=O)c2cccc3cccc(c23)C1=O)N1CCC(Cc2ccccc2)CC1 , is growth less than 70%?
## Result Criterion not met

## Task Say whether its growth is strictly beneath 70%. Entry: CCn1cc(Cc2cc(C(=O)Nc3cc4cc(OC)c(OC)cc4c(C)n3)ccc2Cl)cn1
## Result Criterion met

## Task Is the reported growth for NNc1ncccn1 strictly below 70%?
## Result Criterion not met

## Task Field: below-cutoff. Rule: recorded growth strictly less than 70%. Subject: Cc1ccc(O)c(C(=O)c2ccccc2)c1
## Result Criterion not met

## Task Quick check: growth of COc1ccc(C2CC(=O)c3c(O)c(OC)c(OC)c(OC)c3O2)cc1O (stereo unspecified) under 70%?
## Result Criterion met

## Task Determine whether this compound shows growth lower than 70% (ties excluded): Nc1nccc(Nc2ccccc2)n1
## Result Criterion not met
